tested_on: SERT (Rattus norvegicus, UniProt P31652)
Sequence (P31652 whole entry): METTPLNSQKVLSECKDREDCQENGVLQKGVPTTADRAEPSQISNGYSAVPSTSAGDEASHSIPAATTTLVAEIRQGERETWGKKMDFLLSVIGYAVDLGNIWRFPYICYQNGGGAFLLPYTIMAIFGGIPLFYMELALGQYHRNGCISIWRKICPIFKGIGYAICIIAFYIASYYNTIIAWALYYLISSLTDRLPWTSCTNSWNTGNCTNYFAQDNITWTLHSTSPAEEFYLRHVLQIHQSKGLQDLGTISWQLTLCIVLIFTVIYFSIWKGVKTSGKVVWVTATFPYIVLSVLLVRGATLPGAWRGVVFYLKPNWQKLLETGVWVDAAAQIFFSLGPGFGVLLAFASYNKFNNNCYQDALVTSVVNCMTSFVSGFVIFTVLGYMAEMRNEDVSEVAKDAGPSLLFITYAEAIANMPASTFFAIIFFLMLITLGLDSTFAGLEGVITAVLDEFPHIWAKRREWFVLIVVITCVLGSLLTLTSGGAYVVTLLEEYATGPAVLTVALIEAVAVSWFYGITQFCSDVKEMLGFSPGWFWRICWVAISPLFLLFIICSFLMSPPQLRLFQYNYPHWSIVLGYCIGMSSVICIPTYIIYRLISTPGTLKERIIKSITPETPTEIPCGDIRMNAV
protocol_notes: transporter-mediated release in rat brain synaptosomes, SERT
Format: biochemical
pEC50 values for the compounds below.
Scale: negative log10 of molar concentration, which is what pEC50 denotes.

Some compounds with recorded pEC50:
compound	quantity_kind	recorded_number
CNC(C)C(=O)c1ccccc1C.Cl (centres unmarked)	pEC50	6.31
CNC(C)C(=O)c1cccc(OC)c1.Cl (centres unmarked)	pEC50	6.17
CNC(C)C(=O)c1ccccc1Cl.Cl (centres unmarked)	pEC50	5.55

Query: Data request, read-out pEC50, for CNC(C)C(=O)c1cccc(C(F)(F)F)c1.Cl (centres unmarked)
Reply: 6.55

Query: What pEC50 value was documented for this compound, CNC(C)C(=O)c1cccc(C)c1.Cl (centres unmarked) ?
Reply: 6.57

Query: Recorded pEC50 for CNC(C)C(=O)c1ccccc1OC.Cl (centres unmarked) , please?
Reply: 5.14

Query: Would you mind telling me what pEC50 value was observed for CNC(C)C(=O)c1ccccc1Br.Cl (centres unmarked) ?
Reply: 5.55

Query: Entry CNC(C)C(=O)c1cccc(Br)c1.Cl (centres unmarked) has what pEC50?
Reply: 6.87
